Target: T1, 4H1544-bH
T1 chain: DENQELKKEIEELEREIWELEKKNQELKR
Assay: two-hybrid library CCNG1;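 note: natural log of median RNA to DNA barcode read ratio; higher means stronger binding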
MEASUREMENT_KIND: interaction score
Keep it simple and answer with nothing but the number.

Check out these entries, answers already filled in.
BINDER	interaction score
DENQELEKKNEELERKIWELKKEIQELER [4H1449-bH]	-0.787
DENQELEKENEELKREIWELEKKIQELKR [4H1222-bH]	-2.53

Now let's try a different one.
Ask: Bench note: what interaction score did DENQELEKKIEELKREIWELEKENQELKR [4H1348-bH] show?
Result: 1.3

The measured values listed here are drawn from paper PMC10397247.
